# System: MDA-MB-468 breast
# protocol_notes: NCI-60 one-dose screen, 48 h
# measurement_context: 10 µM unless noted
The panel holds about 83,000 compounds, 20% with a hit somewhere; the sample as a whole holds those more often. Calls of active or inactive are those of the source. The calls were made as follows: active = growth percent below 10; inactive = the rest.
Pick one: 1 for active, -1 for inactive

See these solved cases before continuing.
> print(dat)
                                   compound  label.class
1  C=C1[C@@H](C)[C@H]2[C@H](Cc3ccccc3)NC(=O)[C@]23[C@@H](O)/C=C/[C@@](C)(O)C(=O)[C@@H](C)C/C=C/[C@H]3[C@@H]1O            1
2  O=C1CC2(CC3(Cl)C(Cl)=C(Cl)C2(Cl)C3(Cl)Cl)C(=O)O1 (stereo not given)           -1
3                     CCCCCCCCOC(=O)CCN1CC1           -1
4  N#CC1c2ccccc2C=CN1C(=O)c1ccc(N(CCCl)CCCl)cc1 (stereo not given)           -1

# ---- query compound ----
Could you kindly confirm the outcome this assay logged for CC[CH2][Sn]([Cl])([Cl])[CH2]CC ? -1

Reference source: PubChem BioAssay (NCI)
